system: UACC-62; assay: NCI tumour cell line growth inhibition, 48 h
The source made the active and inactive calls. No stated cut-off is given here; in the data, active = GI50 up to about 1.1 µM and inactive = higher.
Result category, one only: 1 for active, -1 for inactive

Assay outcome for CNS(=O)(=O)NNS(=O)(=O)c1ccc(C)cc1 : what was it?
-1

Assay outcome for C[n+]1cn(C2=C([N-]S(=O)(=O)c3ccccc3)C(=O)c3ccccc3C2=O)c2ccccc21 : what was it?
-1

Assay outcome for COc1cc2c(cc1OCCCNC(=O)c1cc3ccccc3[nH]1)N=C[C@@H]1CCCN1C2=O : what was it?
1

Assay outcome for N#C/C(=C\c1ccc(Cl)cc1)c1nc(-c2cc3ccccc3oc2=O)cs1 : what was it?
-1

Assay outcome for Clc1cc(Cl)cc(C2ON=C(c3ccccc3)N2C23CC4CC(CC(C4)C2)C3)c1 (stereo not given) : what was it?
-1

Assay outcome for COC1=N[C@H](C(C)C)C(OC)=N[C@H]1Cc1ccc(C[C@@H]2N=C(OC)[C@@H](C(C)C)N=C2OC)s1 : what was it?
-1

Assay outcome for COc1cccc(NC(=O)N/C(=C/c2ccc(N(CCC#N)CCC#N)cc2)NC(=O)c2cc([N+](=O)[O-])ccc2Cl)c1 : what was it?
-1

Assay outcome for O=S(=O)(c1ccccc1)C(CN1CCCCC1)S(=O)(=O)c1ccccc1 : what was it?
-1

Assay outcome for Cn1c(=O)c2nc(CCS)[nH]c2n(C)c1=O : what was it?
-1

Assay outcome for CC(=O)OC1CCC2C3CCc4c(C)ccc(OS(=O)(=O)c5ccccc5)c4C3CCC12C (stereo not given) : what was it?
-1

Assay outcome for NC(=S)N/N=C(\CC1OC(=O)c2ccccc21)c1ccc(Cl)cc1 (stereo not given) : what was it?
-1

Assay outcome for CCOC(=O)C1=C(Nc2ccc(NC3=C(C(=O)OCC)C(=O)CS3)cc2)SCC1=O : what was it?
-1

Assay outcome for Cc1ccc2c(c1)NC(c1ccc(C(=O)O)cc1)c1cccn1-2 (stereo not given) : what was it?
-1

Assay outcome for COC(=O)C(=O)C(C(=O)C(=O)Nc1nc2ccc(C)cc2s1)c1nc2ccc([N+](=O)[O-])cc2nc1O (stereo not given) : what was it?
-1

Assay outcome for CN(C)CC(C)(C)C(=O)/C=C/c1ccccc1 : what was it?
-1

Assay outcome for COC(=O)C1=C(OC(=O)c2ccccc2)C(C(=O)OC)[C@@]2(O)[C@@H](C(=O)OC)[C@H](C)C[C@@H]1[C@@H]2C(=O)OC (stereo not given in full) : what was it?
-1

Assay outcome for O=[N+]([O-])c1ccc(Cl)c2c([N+](=O)[O-])cccc12 : what was it?
-1

Assay outcome for Nc1nc2c(c(-c3cccc(Cl)c3)n1)COC/C2=C\c1cccc(Cl)c1 : what was it?
-1

Assay outcome for CC1(C)C2CCC(=O)C1C(OCc1ccccc1)C2 (stereo not given) : what was it?
-1

Assay outcome for N=C(N)SC1c2ccccc2-c2cc([N+](=O)[O-])ccc21 (stereo not given) : what was it?
-1
